src = paper PMC4869729

System: thioredoxin reductase
assay info: Thioredoxin reductase activity in treated Caki-1 cells
Assay type: cell-based, human
run parameters: read-out: IC50 thioredoxin reductase, after 12 hours

{"molecule smiles": "CC(=O)OC[C@H]1O[C@@H]([S-])[C@H](OC(C)=O)[C@@H](OC(C)=O)[C@@H]1OC(C)=O.CCP(CC)CC.[Au+]", "IC50 / nM": 610}
